Molecular target: T1, E. coli 70S ribosome particle (E. coli)
T1 construct: also called ^Ec70S
Experiment: ITC, 30 °C, peptide titrated into E. coli 70S ribosome
Square brackets hold non-standard residues; d marks the D form. Ends that are not written are not given here. Cha = N[C@@H](CC1CCCCC1)C(=O)O
OUTCOME_MEASURE: -TΔS (kcal/mol)
Response body: numeric value in kcal/mol, unit text excluded.

Challenge: What measured -TΔS goes with VDKPPYLPRPRPPR[dR]IYN[dR]NGPRQ[Cha]DLF-OH (Fusion of Onc112 and P7; the printed Mw 3472.08 agrees with that N; also called CA3-30; Onc-P7) [P30 (Onc112-P7), VDKPPYLPRPRPPRrIYNrNGPRQChaDLF-OH] ?
Response given: 15.7

Challenge: Please give the result for VDKPPYLPRPRPPR[dR]IYN[dR]-NH2 (also called CA3 28; CA3-28) [P28 (Onc112), VDKPPYLPRPRPPRrIYNr-NH2] too.
Response given: 14

Challenge: What do you get for VDKGSYLPRPTPPRPIYNRN-NH2 (Bought from Novopro; also called unglycosylated pyrrhocoricin) [Py (Pyrrhocoricin), VDKGSYLPRPTPPRPIYNRN-NH2] ?
Response given: 8.23

Challenge: How about VDKPPYLPRPRPPR[dR]IYN[dR]NGPR[Cha]FQLD-OH (Control fusion peptide with scrambled P7; also called Onc112-Scr) [P120 (Onc112-P7Scr), VDKPPYLPRPRPPRrIYNrNGPRChaFQLD-OH] ?
Response given: 3.12
